assay-name: Pharmacokinetics in the mouse (plasma levels by LC-MS after oral gavage of Example 1)
Assay type: in vivo
setup-conditions: mouse; female ICr mice, single oral gavage of Example 1 at 30 mg/kg, plasma, 1 hour post dosing
measure: concentration at 1 h (µM)

I. CNC(=O)c1cc(Oc2ccc(N3CN(C)CN(c4ccc(Cl)c(C(F)(F)F)c4)C3=O)cc2)ccn1
II. CNC(=O)c1cc(Oc2ccc(NC(=O)Nc3ccc(Cl)c(C(F)(F)F)c3)cc2)ccn1 [Intermediate 1, reference compound]
Prompt: Between I and II , whose measured concentration at 1 h reads higher? Give the label of your selection.
Response: I
(I: 13 µM, II: 0.2 µM)

----------
assay-name: Pharmacokinetics in the mouse (plasma levels by LC-MS after oral gavage of Example 1)
Format: in vivo
setup-conditions: mouse; female ICr mice, single oral gavage of Example 1 at 30 mg/kg, plasma
measure: Cmax (µM)

1. CNC(=O)c1cc(Oc2ccc(NC(=O)Nc3ccc(Cl)c(C(F)(F)F)c3)cc2)ccn1 [Intermediate 1, reference compound]
2. CNC(=O)c1cc(Oc2ccc(N3CN(C)CN(c4ccc(Cl)c(C(F)(F)F)c4)C3=O)cc2)ccn1
Prompt: Which gives the smaller Cmax number: 1 or 2 ? Give the label of your selection.
Response: 1

----------
assay-name: Pharmacokinetics in the mouse (plasma levels by LC-MS after oral gavage of Example 1)
Type: in vivo
setup-conditions: mouse; female ICr mice, single oral gavage of Example 1 at 30 mg/kg, plasma, 5 hours post dosing
measure: concentration at 5 h (µM)

1. CNC(=O)c1cc(Oc2ccc(N3CN(C)CN(c4ccc(Cl)c(C(F)(F)F)c4)C3=O)cc2)ccn1 [Example 1]
2. CNC(=O)c1cc(Oc2ccc(NC(=O)Nc3ccc(Cl)c(C(F)(F)F)c3)cc2)ccn1 [Intermediate 1, reference compound]
Prompt: Which gives the smaller concentration at 5 h number: 1 or 2 ? Give the label of your selection.
Response: 2
(2: 0.5 µM, 1: 9.4 µM)

----------
assay-name: Pharmacokinetics in the mouse (plasma levels by LC-MS after oral gavage of Example 1)
Assay type: in vivo
setup-conditions: mouse; female ICr mice, single oral gavage of Example 1 at 30 mg/kg, plasma
measure: AUC (µM·h)

a. CNC(=O)c1cc(Oc2ccc(N3CN(C)CN(c4ccc(Cl)c(C(F)(F)F)c4)C3=O)cc2)ccn1
b. CNC(=O)c1cc(Oc2ccc(NC(=O)Nc3ccc(Cl)c(C(F)(F)F)c3)cc2)ccn1 [Intermediate 1, reference compound]
Prompt: Which gives the smaller AUC number: a or b ? Give the label of your selection.
Response: b
